System: UO-31
Assay: NCI tumour cell line growth inhibition, 48 h
Calls of active or inactive are those of the source. Cut-off read from the data, not from the text of the source: active = GI50 up to about 1.1 µM and inactive = higher.
Write down one outcome, taken from Y for active, N for inactive

Answered examples (2):
Cc1ccc(S(=O)(=O)N2CCN(CCN(C)CCN3CCN(S(=O)(=O)c4ccc(C)cc4)CC3)CC2)cc1    N
CCOC(=O)[C@@]1(C)C=C2O[C@@H]3OC4(CCCCC4)O[C@@H]3C2=C2C(O)=CC=C(O)[C@]21C(=O)OC    N

Query: Could you kindly confirm the outcome this assay logged for COc1cc(C(=O)c2cocc2C(=O)c2ccc3c(c2)OCO3)cc(OC)c1OC ?
Reply: N

Query: Could you kindly confirm the outcome this assay logged for Sc1ncc2[nH]nnc2n1 ?
Reply: N

Query: Could you kindly confirm the outcome this assay logged for O=[N+]([O-])c1cc(Cc2cc([N+](=O)[O-])c3cccnc3c2O)c(O)c2ncccc12 ?
Reply: N
